Data credit: patent US20220204476A1

# target: SARS-CoV-2 3CLP (Severe acute respiratory syndrome coronavirus 2, UniProt P0DTD1)
# test_details: SARS-CoV-2 3CLP inhibition, FRET-based cleavage assay
# Assay type: biochemical
# recorded_conditions: 80 nM SARS-CoV-2 3CLP, 100 μM substrate, 37° C., 10 min incubation, pH 7.8; read-out: 3CL Protease IC50
measured_attribute: pIC50
Entry type: numeric. Quantity: pIC50, the -log10 of concentration in molar units.

Quote pIC50 reported for "COc1cccc2[nH]c(C(=O)N[C@@H](CC(C)C)C(=O)N[C@@H](C[C@@H]3CCCNC3=O)C(=O)COC(=O)c3c(C)nc(C)nc3C)cc12" please. 7.66

Quote pIC50 reported for "CC(C)C[C@H](NC(=O)OCC1c2ccccc2-c2ccccc21)C(=O)N[C@H](C#N)C[C@@H]1CCCNC1=O" please. 6.77

Quote pIC50 reported for "COc1cccc2[nH]c(C(=O)N[C@@H](CC(C)C)C(=O)N[C@@H](C[C@@H]3CCCNC3=O)C(=O)COC(=O)C3(C#N)CC3)cc12" please. 7.80

---
Quote pIC50 reported for "CC(C)(C)C[C@H](NC(=O)[C@@H]1CCCN1)C(=O)N[C@H](C#N)C[C@@H]1CCCNC1=O" please. 5.96

Quote pIC50 reported for "COc1cccc2[nH]c(C(=O)N[C@@H](CC(C)C)C(=O)N[C@@H](C[C@@H]3CCCNC3=O)C(=O)COC(=O)c3c(Cl)cccc3Cl)cc12" please. 8.19

Quote pIC50 reported for "CCOc1cccc2[nH]c(C(=O)N[C@@H](CC(C)C)C(=O)N[C@H](C#N)C[C@@H]3CCCNC3=O)cc12" please. 7.62
